TESTED SYSTEM: Catechol O-methyltransferase (Homo sapiens, UniProt P21964)
Sequence (P21964 whole entry): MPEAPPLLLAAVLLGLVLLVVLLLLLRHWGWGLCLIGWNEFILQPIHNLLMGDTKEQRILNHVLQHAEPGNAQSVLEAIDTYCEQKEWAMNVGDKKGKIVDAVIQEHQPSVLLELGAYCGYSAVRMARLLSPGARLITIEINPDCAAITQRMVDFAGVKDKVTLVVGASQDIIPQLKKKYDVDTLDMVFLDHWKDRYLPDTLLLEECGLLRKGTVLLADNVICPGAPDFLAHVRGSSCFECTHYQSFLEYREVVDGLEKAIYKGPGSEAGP
RUN DESCRIPTION: Inhibition of recombinant human C-terminal His6-tagged MB-COMT expressed in Bacmid using SAM/dopamine as substrate preincubated for 2 hrs followed by substrate addition measured after 25 mins by SAC TAMRA tracer-based fluorescence polarization assay
Kindly apply the following: met if IC50 is less than 100 nM, not met in every other case.

Would you please look over these solved cases?
[[record]]
smiles_structure = "O=c1ccn(-c2ccnc(-c3ccccc3)c2)cc1O"
assigned_category = "not met"

[[record]]
smiles_structure = "O=c1ccn(-c2cc(-c3cnn(Cc4ccccc4)c3)ccn2)cc1O"
assigned_category = "met"

[[record]]
smiles_structure = "O=c1ccn(-c2cc(-c3ccccn3)ccn2)cc1O"
assigned_category = "not met"


Field: below-cutoff. Rule: recorded IC50 strictly less than 100 nM. Subject: `O=c1ccn(-c2ccnc(-c3ccccc3)n2)cc1O`
not met

Is IC50 of `O=c1ccn(-c2nc(-c3ccccn3)cs2)cc1O` strictly below 100 nM?
not met

---

RUN DESCRIPTION: Plasma concentration in rat at 100 mg/kg, ip after 1 hr
Assay type: ADME, organism-based
READOUT: concentration at 1 h (µM)
Give bare numbers, in µM.

Please report concentration at 1 h for the following compound: `O=c1ccn(-c2cc(-c3ccccc3)ccn2)cc1O`
3.6

---

RUN DESCRIPTION: Volume of distribution in rat at 0.5 mg/kg, iv
Type: ADME, organism-based
MEASUREMENT PARAMETERS: in vivo
READOUT: Vd (L/kg)
One number for each entry, in L/kg.

# return recorded Vd for input `O=c1ccn(-c2cc(-c3ccccc3)ccn2)cc1O`
1.9

---

RUN DESCRIPTION: Plasma concentration in rat at 30 mg/kg, ip after 1 hr
Assay type: ADME, organism-based
READOUT: concentration at 1 h
Your answer should be a number followed by the unit of measure.

For the molecule `O=c1ccn(-c2cc(-c3ccccc3)ccn2)cc1O` , give its measured concentration at 1 h value.
70 nM

---

Record form. Attribute: clearance. Fill in for each entry.
RUN DESCRIPTION: Plasma clearance in rat at 0.5 mg/kg, iv
Assay type: ADME, organism-based
Answers are plain numbers, in mL/min/kg.

[[record]]
smiles_structure = "O=c1ccn(-c2cc(-c3ccccc3)ccn2)cc1O"
readout = "clearance"
numeric_result = 94

[[record]]
smiles_structure = "O=c1ccn(-c2cc(-c3ccc(Cl)c(Cl)c3)ccn2)cc1O"
readout = "clearance"
numeric_result = 200


Quote clearance reported for `O=c1ccn(-c2cccc(-c3ccccc3)c2)cc1O` please.
58

---

TESTED SYSTEM: Catechol O-methyltransferase (Homo sapiens)
RUN DESCRIPTION: Inhibition of recombinant human C-terminal His6-tagged MB-COMT expressed in Bacmid using SAM/dopamine as substrate preincubated for 2 hrs followed by substrate addition measured after 25 mins by SAC TAMRA tracer-based fluorescence polarization assay
Please respond with reported IC50 for every item in the list.
One number for each entry, in nM.

[[record]]
smiles_structure = "O=c1ccn(-c2cc(-c3cccnc3)ccn2)cc1O"
readout = "IC50"
numeric_result = 574


Go through the items and report each one's IC50.
1. O=c1ccn(-c2cc(-c3ccccc3)ccn2)cc1O
2. O=c1ccn(-c2cccc(-c3ccccc3)n2)cc1O
3. O=c1ccn(-c2cc(-c3cccc(C(F)(F)F)n3)ccn2)cc1O

[40, 128, 84]

---

TESTED SYSTEM: UniProt P22734
Sequence (P22734 whole entry): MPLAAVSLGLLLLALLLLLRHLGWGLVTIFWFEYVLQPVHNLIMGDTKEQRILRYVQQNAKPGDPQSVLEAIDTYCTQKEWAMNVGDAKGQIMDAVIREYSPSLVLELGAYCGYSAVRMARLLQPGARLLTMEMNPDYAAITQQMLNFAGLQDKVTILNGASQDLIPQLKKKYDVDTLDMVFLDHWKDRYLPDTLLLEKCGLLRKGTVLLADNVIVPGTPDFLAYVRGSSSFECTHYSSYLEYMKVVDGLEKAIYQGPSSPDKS
RUN DESCRIPTION: Inhibition of recombinant rat C-terminal His10-tagged MB-COMT transfected in Escherichia coli BL21-CodonPlus(DE3)-RIPL using SAM/dopamine as substrate preincubated for 2 hrs followed by substrate addition measured after 25 mins by SAC TAMRA tracer-based fluorescence polarization assay
READOUT: IC50 (nM)
One number for each entry, in nM.

[[record]]
smiles_structure = "O=c1ccn(-c2cc(-c3cnn(Cc4ccccc4)c3)ccn2)cc1O"
result_units = "nM"
numeric_result = 28

[[record]]
smiles_structure = "O=c1ccn(-c2cc(-c3ccc(Cl)c(Cl)c3)ccn2)cc1O"
result_units = "nM"
numeric_result = 27

[[record]]
smiles_structure = "O=c1ccn(-c2cc(-c3cccc(C(F)(F)F)n3)ccn2)cc1O"
result_units = "nM"
numeric_result = 11

[[record]]
smiles_structure = "CC(C)(C)c1nc(-c2ccnc(-n3ccc(=O)c(O)c3)c2)cs1"
result_units = "nM"
numeric_result = 15


Please find the next compound below.
Look up and report IC50, with UniProt P22734 as system, for `O=c1ccn(-c2cc(-c3ccccc3)ccn2)cc1O`
15

---

Give pIC50 for every item shown.
TESTED SYSTEM: UniProtKB P21964
Sequence (P21964 whole entry): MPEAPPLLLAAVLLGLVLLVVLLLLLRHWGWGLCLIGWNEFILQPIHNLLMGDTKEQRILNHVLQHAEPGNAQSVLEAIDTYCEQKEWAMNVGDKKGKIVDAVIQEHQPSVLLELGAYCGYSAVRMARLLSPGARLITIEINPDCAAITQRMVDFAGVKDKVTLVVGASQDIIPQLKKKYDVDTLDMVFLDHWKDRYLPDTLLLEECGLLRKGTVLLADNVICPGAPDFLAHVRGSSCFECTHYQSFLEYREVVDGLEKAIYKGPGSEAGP
RUN DESCRIPTION: Inhibition of recombinant human C-terminal His6-tagged MB-COMT expressed in Bacmid using SAM/dopamine as substrate preincubated for 2 hrs followed by substrate addition measured after 25 mins by SAC TAMRA tracer-based fluorescence polarization assay
Answers are plain numbers, as −log10 of the molar value.

[[record]]
smiles_structure = "O=c1ccn(-c2nccc3ccccc23)cc1O"
readout = "pIC50"
numeric_result = 6.02


// for each compound below, give its pIC50
1. O=c1ccn(-c2nccc(-c3ccccc3)c2F)cc1O
2. O=c1ccn(-c2cc(-c3ccncc3)ccn2)cc1O
3. O=c1ccn(-c2cc(-c3ccc(Cl)c(Cl)c3)ccn2)cc1O

1: 7.26; 2: 6.17; 3: 7.46

---

TESTED SYSTEM: Catechol O-methyltransferase (Homo sapiens, UniProt P21964)
Sequence (P21964 whole entry): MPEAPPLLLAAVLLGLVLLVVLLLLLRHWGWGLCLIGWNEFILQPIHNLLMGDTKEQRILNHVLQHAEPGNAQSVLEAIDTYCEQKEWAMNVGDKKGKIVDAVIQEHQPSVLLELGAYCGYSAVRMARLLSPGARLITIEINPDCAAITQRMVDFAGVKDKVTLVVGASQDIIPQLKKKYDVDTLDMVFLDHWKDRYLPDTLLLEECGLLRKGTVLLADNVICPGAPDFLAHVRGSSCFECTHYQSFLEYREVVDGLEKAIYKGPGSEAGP
RUN DESCRIPTION: Inhibition of recombinant human C-terminal His6-tagged soluble COMT transfected in Escherichia coli BL21-Gold (DE3) using SAM/dopamine as substrate preincubated for 2 hrs followed by substrate addition measured after 25 mins by SAC TAMRA tracer-based fluorescence polarization assay
Friendly reminder: IC50 below 2000 nM is Yes, at or above is No.

Reference set (7 entries):
[[record]]
smiles_structure = "O=c1ccn(-c2ccnc(-c3ccccc3)c2)cc1O"
assigned_category = "No"

[[record]]
smiles_structure = "O=c1ccn(-c2nccc3ccccc23)cc1O"
assigned_category = "Yes"

[[record]]
smiles_structure = "O=c1ccn(-c2cc(-c3ccccc3)ccn2)cc1O"
assigned_category = "No"

[[record]]
smiles_structure = "O=c1ccn(-c2cccc(-c3ccccc3)n2)cc1O"
assigned_category = "No"

[[record]]
smiles_structure = "Cc1cn2nc(-n3ccc(=O)c(O)c3)ccc2n1"
assigned_category = "Yes"

[[record]]
smiles_structure = "O=c1ccn(-c2nccc(-c3ccccc3)c2F)cc1O"
assigned_category = "Yes"

[[record]]
smiles_structure = "O=c1ccn(-c2nc(-c3ccccn3)cs2)cc1O"
assigned_category = "No"


Lab note: IC50 threshold 2000 nM. Does this compound come in strictly under it? `O=c1ccn(-c2ncccc2-c2ccccc2)cc1O`
No

---

RUN DESCRIPTION: Drug uptake in rat cerebrospinal fluid at 100 mg/kg, ip after 1 hr
Type: ADME, organism-based
MEASUREMENT PARAMETERS: read-out: Drug uptake
READOUT: concentration at 1 h
Hey, just the number and the unit after it is fine.

Respond only with concentration at 1 h recorded for `O=c1ccn(-c2cc(-c3ccccc3)ccn2)cc1O`
410 nM
